- System: KG-1
- testName: Cytostatic activity human KG1 cells
- Assay type: functional, cell-based
Label T when IC50 < 40 µM; otherwise F.

• C[C@H](NP(=O)(OC[C@H]1O[C@@H](n2ccc(=O)[nH]c2=O)[C@@H](O)[C@@H]1O)Oc1ccccc1)C(=O)OCc1ccccc1 (stereo partly specified) = F
• C[C@@H](NP(=O)(OC[C@H]1O[C@@H](n2ccc(=O)[nH]c2=O)[C@@H](O)[C@@H]1O)Oc1ccccc1)C(=O)OCc1ccccc1 (stereo partly specified) = F
• CC(C)OC(=O)[C@H](C)NP(=O)(OC[C@H]1O[C@@H](n2ccc(=O)[nH]c2=O)[C@@H](O)[C@@H]1O)Oc1cccc2ccccc12 (stereo partly specified) = F
• COC(=O)[C@H](C)NP(=O)(OC[C@H]1O[C@@H](n2ccc(=O)[nH]c2=O)[C@@H](O)[C@@H]1O)Oc1ccccc1 (stereo partly specified) = T
• O=c1ccn([C@@H]2O[C@H](CO)[C@@H](O)[C@@H]2O)c(=O)[nH]1 = T
